- ASSAY TARGET: CCR2 (Homo sapiens, UniProt P41597)
- Sequence (P41597 whole entry, species assumed): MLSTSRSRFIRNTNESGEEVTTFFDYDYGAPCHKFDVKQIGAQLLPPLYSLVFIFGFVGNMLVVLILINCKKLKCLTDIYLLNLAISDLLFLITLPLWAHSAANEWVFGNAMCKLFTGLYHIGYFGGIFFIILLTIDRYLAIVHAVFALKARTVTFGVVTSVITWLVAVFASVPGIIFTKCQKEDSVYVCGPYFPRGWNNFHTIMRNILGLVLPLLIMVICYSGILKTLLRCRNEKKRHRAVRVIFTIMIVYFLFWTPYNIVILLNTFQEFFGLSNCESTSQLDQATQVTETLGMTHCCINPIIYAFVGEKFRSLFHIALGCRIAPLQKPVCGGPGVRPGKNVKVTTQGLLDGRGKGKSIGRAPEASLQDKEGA
- PROTOCOL DETAILS: CCR2 in vitro test: intracellular calcium signal detected by FLIPR
- CONDITION SUMMARY: HEK293 cells expressing CCR2, agonist MCP-1 at EC80, calcium signal
ENDPOINT LABEL: IC50 (µM)

MOLECULE: CCCCOc1ccc(-c2ccc(OC)c(/C=C/C(=O)Nc3ccc([S@@+]([O-])Cc4cncn4CCC)cc3)c2)cc1 [WX048]
ENDPOINT LABEL: IC50
UNIT SPEC: µM
VALUE MEASURED: 0.0118

(I) CCCOCCOc1ccc(-c2ccc(OC)c(/C=C/C(=O)Nc3ccc([S@@+]([O-])Cc4cncn4CCC)cc3)c2)cc1 [WX050]
(II) CCCCOCCOc1ccc(-c2ccc(OC(F)(F)F)c(/C=C/C(=O)Nc3ccc([S@+]([O-])Cc4c(C)ncn4CC)cc3)c2)cc1 [WX055]
Task item: # query: argmin of IC50 over I and II Field: selected label. Fill in the label of the entry you choose.
Reply: II

Where do the numbers come from? From patent US11155523B2.
